Hi there, I'd appreciate the recorded GST-Erbin P0071 (signal ratio) for every entry that follows.
- Tested on: Erbin‐P0071 complex
- Construct: human Erbin PDZ domain; made in house; host or cells: E. coli BL21 (DE3)
- Experimental Details: HTRF assay, Erbin-P0071 interaction
- Type: biochemical, human
- Condition Info: 400µM compound; Figure 1c
Please respond with just the number, no unit label.

Form field GST-Erbin P0071 (signal ratio), entry CC(C)[C@H](NC(=O)CSc1ccc(Cl)cc1)C(=O)O : 1

So, CC(C)[C@H](NS(=O)(=O)c1ccc2ccccc2c1)C(=O)O ? Its GST-Erbin P0071 (signal ratio) was 1

Short answer for CC(C)[C@H](NS(=O)(=O)c1ccc2c(c1)OCCCO2)C(=O)O : GST-Erbin P0071 (signal ratio) was 0.95

Summary for this compound, CC(C)[C@H](NC(=O)COc1ccc2ccccc2c1)C(=O)O : GST-Erbin P0071 (signal ratio) is 0.89

The reported value for Cc1ccc(S(=O)(=O)N[C@H](C(=O)O)C(C)C)cc1C in terms of GST-Erbin P0071 (signal ratio) is 1
